B1: LINE1-mini (parent)
chain: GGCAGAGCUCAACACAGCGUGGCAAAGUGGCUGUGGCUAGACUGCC

Variants of: B1
Test: self-cleavage, relative activity (ratio to wild type); higher = more cleavage; in vitro, sequencing; the parent is a self-cleaving ribozyme
Please mark Criterion met if the recorded self-cleavage is equal to or greater than 0.1, and Criterion not met if it falls below.

mutation_code="G33C G36U" classification="Criterion not met"
mutation_code="A4G G33A" classification="Criterion met"
mutation_code="C13U C45A" classification="Criterion not met"
mutation_code="G2U A25C" classification="Criterion not met"

Exam item: Identify whether the reported self-cleavage of the following variant is 0.1 or greater: U9G C42G
Marked response: Criterion not met

Exam item: Identify whether the reported self-cleavage of the following variant is 0.1 or greater: A26U A39U
Marked response: Criterion met

Exam item: Identify whether the reported self-cleavage of the following variant is 0.1 or greater: C3A C45A
Marked response: Criterion met

Exam item: Identify whether the reported self-cleavage of the following variant is 0.1 or greater: G17A G21U
Marked response: Criterion met
